# Protocol Details: Liver microsomal stability, rat
# Condition Set: rat, liver microsomes, pH 7.4
Experimental Readout: half-life at 1 μM

Take a look at these entries with their results.
# Test Smiles, Experimental Readout, Observed Value
records = [
    ("O=C(C1CC1)n1c(-c2cccc3ccccc23)nc2ccc(Cl)cc21", "half-life at 1 μM", "31.9 min"),
    ("O=S(=O)(c1ccc2ccccc2c1)n1c(-c2cccc3ccccc23)nc2ccc(Cl)cc21", "half-life at 1 μM", "14.8 min"),
    ("O=S(=O)(c1ccc(C(F)(F)F)cc1)n1c(-c2cccc3ccccc23)nc2cc(Cl)ccc21", "half-life at 1 μM", "24.4 min"),
]

Ask | Field request: half-life at 1 μM | item: `O=C(c1ccc(F)c(F)c1)n1c(-c2cccc3ccccc23)cc2cc(Cl)ccc21`
Reply | 26.5 min

Ask | Query `Clc1ccc2[nH]c(-c3cccc4ccccc34)cc2c1` next
Reply | 35.8 min

Ask | Now the compound `O=S(=O)(c1ccc(C(F)(F)F)cc1)n1c(-c2cccc3ccccc23)nc2ccc(Cl)cc21`
Reply | 17.8 min
